- System: Enterococcus
- protocolDetails: Antibacterial activity against vancomycin resistant Enterococcus NCTC 12201 after 24 hrs by microdilution method
- Assay type: functional
- experimentalContext: NCTC 12201, 24 h
quantityMeasured: MIC (µg/mL)
One number for each entry, in µg/mL.

Example results:
[
  {
    "molecule": "CCCc1ccc(C(=O)O[C@H]2[C@H](Oc3c(-c4ccc(O)c(O)c4)oc4cc(O)cc(O)c4c3=O)O[C@H](CO)[C@@H](O)[C@@H]2OC(=O)c2ccc(CCC)cc2)cc1",
    "quantityMeasured": "MIC",
    "obsValue": 4
  },
  {
    "molecule": "O=C(CCc1ccc(F)cc1)O[C@H]1[C@H](Oc2c(-c3ccc(O)c(O)c3)oc3cc(O)cc(O)c3c2=O)O[C@H](CO)[C@@H](O)[C@@H]1OC(=O)CCc1ccc(F)cc1",
    "quantityMeasured": "MIC",
    "obsValue": 1
  },
  {
    "molecule": "CCCc1ccc(C(=O)OC[C@H]2O[C@@H](Oc3c(-c4ccc(O)c(O)c4)oc4cc(O)cc(O)c4c3=O)[C@H](OC(=O)c3ccc(CCC)cc3)[C@@H](O)[C@H]2O)cc1",
    "quantityMeasured": "MIC",
    "obsValue": 4
  },
  {
    "molecule": "CC1O[C@H](Oc2c(-c3ccc(O)cc3)oc3cc(O)cc(O)c3c2=O)[C@@H](OC(=O)/C=C/c2ccc(O)cc2)[C@@H](O)[C@@H]1OC(=O)/C=C/c1ccc(O)cc1 (stereo not given in full)",
    "quantityMeasured": "MIC",
    "obsValue": 4
  },
  {
    "molecule": "O=C(O[C@H]1[C@H](Oc2c(-c3ccc(O)c(O)c3)oc3cc(O)cc(O)c3c2=O)O[C@H](CO)[C@@H](O)[C@@H]1OC(=O)c1ccc(F)cc1)c1ccc(F)cc1",
    "quantityMeasured": "MIC",
    "obsValue": 4
  },
  {
    "molecule": "O=C(Cc1ccc(F)cc1)OC[C@H]1O[C@@H](Oc2c(-c3ccc(O)c(O)c3)oc3cc(O)cc(O)c3c2=O)[C@H](OC(=O)Cc2ccc(F)cc2)[C@@H](O)[C@H]1O",
    "quantityMeasured": "MIC",
    "obsValue": 0.5
  },
  {
    "molecule": "CCOc1ccc(CCC(=O)OC[C@H]2O[C@@H](Oc3c(-c4ccc(O)c(O)c4)oc4cc(O)cc(O)c4c3=O)[C@H](OC(=O)CCc3ccc(OCC)cc3)[C@@H](O)[C@H]2O)cc1",
    "quantityMeasured": "MIC",
    "obsValue": 16
  }
]

Prompt: State the recorded MIC for this entry: `O=C(CCc1ccc(O)cc1)OC[C@H]1O[C@@H](Oc2c(-c3ccc(O)c(O)c3)oc3cc(O)cc(O)c3c2=O)[C@H](OC(=O)CCc2ccc(O)cc2)[C@@H](O)[C@H]1O`
Response: 4
